experiment: Systemic clearance in ICR mouse at 20 mg/kg, iv by LC-MS/MS analysis; assay type: ADME, organism-based; settings: in vivo
Readout type: clearance (L/h/kg)
Answer with a number only, understood to be in L/h/kg.

Ask: I am curious: what clearance value has been reported for COc1cc(N2CCOCC2)ccc1Nc1nc(NC2CCCCC2)c2cc[nH]c2n1 ?
Result: 17.5

* * *

Recorded IC50 for the following molecules
tested on: SK-BR-3; assay: Antiproliferative activity against human SK-BR-3 cells assessed as reduction in cell viability after 5 to 7 days by CellTiter 96 aqueous solution assay; type: functional, cell-based
Kindly provide the numeric value in nM only, without the unit symbol.

> print(dat)
                                     smiles  readout.type  numeric.readout
1  COc1cc(N2CCOCC2)ccc1Nc1nc(NC2CCCCC2)c2cc[nH]c2n1          IC50              400
2  COc1ccccc1Nc1nc(Nc2ccccc2S(=O)(=O)C(C)C)c2cc[nH]c2n1          IC50              750

Pending molecule:
Ask: Look up IC50 for this molecule: COc1cc(N2CCOCC2)ccc1Nc1nc(Nc2ccccc2S(=O)(=O)C(C)C)c2cc[nH]c2n1
Result: 470

* * *

assay: Elimination half-life in ICR mouse at 20 mg/kg, iv by LC-MS/MS analysis; assay type: ADME, organism-based; details: in vivo, read-out: beta t1/2 (converted)
Readout type: half-life

Ask: Bench note: what half-life did COc1cc(N2CCOCC2)ccc1Nc1nc(NC2CCCCC2)c2cc[nH]c2n1 show?
Result: 2.28 h

* * *

Reported IC50 values for the following molecules.
tested on: T47D; assay: Antiproliferative activity against human T47D cells assessed as reduction in cell viability after 5 to 7 days by CellTiter 96 aqueous solution assay; format: functional, cell-based

Worked examples, 4 molecules total:
> print(dat)
                                     smiles   result
1  COc1cc(N2CCOCC2)ccc1Nc1nc(Nc2ccccc2S(=O)(=O)C(C)C)c2cc[nH]c2n1  > 10 µM
2  COc1ccccc1Nc1nc(Nc2ccccc2S(=O)(=O)C(C)C)c2cc[nH]c2n1  0.33 µM
3  COc1cc(N2CCOCC2)ccc1Nc1nc(NC2CCCCC2)c2cc[nH]c2n1  > 10 µM
4  COc1cc(N2CCC(O)CC2)ccc1Nc1nc(Nc2ccccc2S(=O)(=O)C(C)C)c2cc[nH]c2n1  > 10 µM

Ask: What does the record list as IC50 for COc1cc(N2CCC(O)CC2)ccc1Nc1cc(Nc2ccccc2S(=O)(=O)C(C)C)c2cc[nH]c2n1 ?
Result: > 10 µM

* * *

assay: AUC in ICR mouse at 50 mg/kg, ip by LC-MS/MS analysis; type: ADME, organism-based; settings: in vivo
Readout type: AUC (ng·h/mL)
Numeric answer only, unit ng·h/mL assumed.

Ask: Entry COc1cc(N2CCOCC2)ccc1Nc1nc(NC2CCCCC2)c2cc[nH]c2n1 has what AUC?
Result: 8460

* * *

test: Solubility of the compound in 10:5:10:75 DMSO/Tween80/PEG400/saline by absorption spectrometric method; assay type: physicochemical
Readout type: solubility (µg/mL)
Provide only the numeric value, understood in µg/mL.

Ask: Entry COc1cc(N2CCOCC2)ccc1Nc1nc(NC2CCCCC2)c2cc[nH]c2n1 has what solubility?
Result: 5000
